All values here come from PubChem BioAssay AID1996.

- test.context: buffer; pH 7.4; 200.0 µM
solubility kinetic values for the compounds below.
measured.endpoint: solubility kinetic (µg/mL)

{"compound": "CC(C)(C)S(=O)(=O)c1ccccc1-c1noc(-c2ccccc2)c1C(N)=O", "result.modifier": ">", "obs.value": 57.7}
{"compound": "Cc1cc(=O)[nH]c(SCC(=O)Nc2ccc3c(c2)OCCO3)n1", "result.modifier": ">", "obs.value": 50}
{"compound": "CCc1ccccc1NC(=O)CN(C1CCCCC1)S(C)(=O)=O", "result.modifier": ">", "obs.value": 50.8}
{"compound": "O=C(Nc1cccnc1Cl)c1cccs1", "result.modifier": ">", "obs.value": 35.8}
{"compound": "O=C(NCc1ccc2c(c1)OCO2)C(=S)N1CCOCC1", "result.modifier": ">", "obs.value": 46.3}
{"compound": "O=C(COC(=O)COc1ccc(Br)cc1)NCc1ccc2c(c1)OCO2", "result.modifier": "=", "obs.value": 8.4}
{"compound": "O=C(Nc1ccc(-c2n[nH]c(=S)o2)cc1)c1ccccc1", "result.modifier": ">", "obs.value": 44.6}
{"compound": "CCSCc1nc2ccccn2c1Br", "result.modifier": "=", "obs.value": 34.6}
{"compound": "O=C(NNC1CC(=O)N(c2ccccc2)C1=O)c1cccnc1 (stereo not given)", "result.modifier": ">", "obs.value": 46.5}
{"compound": "COCCCNC1CS(=O)(=O)CC1O.Cl (stereo not given)", "result.modifier": ">", "obs.value": 39}
{"compound": "N/C(=N\\c1nc2ccccc2o1)NC(=O)c1ccc([N+](=O)[O-])cc1", "result.modifier": "<", "obs.value": 0.1}
{"compound": "CNC(=S)NCCc1ccccc1", "result.modifier": "=", "obs.value": 25.6}
{"compound": "CCOc1ccc(NC(=O)/C(C#N)=C/c2cn(CC(=O)O)c3ccccc23)cc1", "result.modifier": ">", "obs.value": 58.4}
{"compound": "O=C(COC(=O)CCc1c[nH]c2ccccc12)Nc1ccccc1", "result.modifier": "=", "obs.value": 4.5}
{"compound": "CCOc1ccccc1NC(=O)C1C2CCC(O2)C1C(=O)O (stereo not given)", "result.modifier": ">", "obs.value": 45.8}
{"compound": "O=C(NCC(c1ccco1)N1CCN(c2ccccc2F)CC1)c1cccs1 (stereo not given)", "result.modifier": "=", "obs.value": 54.3}
{"compound": "CCn1c(CCNC(=O)c2ccco2)nc2ccccc21", "result.modifier": "=", "obs.value": 40.5}
{"compound": "COc1cccc(NC(=O)CCN2C(=O)C3CC=CCC3C2=O)c1 (stereo not given)", "result.modifier": ">", "obs.value": 49.3}
{"compound": "COC(=O)C(=C/C=C/c1cccnc1)C(=O)OC", "result.modifier": ">", "obs.value": 37.1}
{"compound": "CCCn1c(SCC(=O)NC2CCCC2)nnc1C(C)C", "result.modifier": ">", "obs.value": 46.6}
{"compound": "C=C(c1ccccc1Cl)[n+]1ccccc1.F[B-](F)(F)F", "result.modifier": ">", "obs.value": 45.5}
{"compound": "Cc1cc(C)nc(NC(=S)NC(=O)c2ccccc2F)n1", "result.modifier": "=", "obs.value": 8.1}
{"compound": "Cc1cccc(NC(=O)c2cccc(C(=O)Nc3cccc(C)c3)n2)c1", "result.modifier": "<", "obs.value": 0.2}
{"compound": "Cc1cccc(N2CCN(C(=O)/C=C/c3cccs3)CC2C)c1 (stereo not given)", "result.modifier": "=", "obs.value": 22.8}
{"compound": "COc1ccccc1CC(=O)N1CCN(S(=O)(=O)c2ccccc2F)CC1", "result.modifier": ">", "obs.value": 58.9}
{"compound": "Cc1ccc2nc(-c3ccc4c(c3)NC(=O)CO4)cn2c1", "result.modifier": "=", "obs.value": 3.2}
{"compound": "Cc1ccc(C)c(NC(=O)CCc2ccc(C)o2)c1", "result.modifier": "=", "obs.value": 24.6}
{"compound": "CCn1ncc(N2CCOCC2)c(Cl)c1=O", "result.modifier": ">", "obs.value": 36.6}
{"compound": "Cc1noc2ncnc(Oc3ccccc3Cl)c12", "result.modifier": "=", "obs.value": 28}
{"compound": "Cc1ccc(-n2nc(-c3ccco3)cc2C(=O)O)cc1", "result.modifier": ">", "obs.value": 40.2}
{"compound": "Clc1ccc(OCc2noc(-c3ccsc3)n2)c(Cl)c1", "result.modifier": "<", "obs.value": 0.4}
{"compound": "O=C(Nc1ccc([N+](=O)[O-])cc1)N1CCc2ccccc2C1", "result.modifier": "=", "obs.value": 22}
{"compound": "COc1cc2c(cc1OC)C(C)N(S(=O)(=O)c1cn(C)c(C)n1)CC2 (stereo not given)", "result.modifier": ">", "obs.value": 54.8}
{"compound": "COc1ccc(C2CC(C)(c3ccc(OC)cc3)Nc3ccccc3N2)cc1 (stereo not given)", "result.modifier": "<", "obs.value": 0.4}
{"compound": "COc1ccccc1CNc1ccc(Br)cn1", "result.modifier": "=", "obs.value": 11.6}
{"compound": "CC(=O)NC(Cc1c[nH]c2ccccc12)C(=O)NCc1ccco1 (stereo not given)", "result.modifier": ">", "obs.value": 48.8}
{"compound": "COc1cccc(OCC(=O)NC2CCS(=O)(=O)C2)c1 (stereo not given)", "result.modifier": ">", "obs.value": 44.9}
{"compound": "CN(C1CCCCC1)S(=O)(=O)c1ccc(SCC(=O)C(C)(C)C)nc1", "result.modifier": "=", "obs.value": 3.2}
{"compound": "CC1CC(OC(=O)c2ccccc2)(c2ccccc2)C(C)CN1C (stereo not given)", "result.modifier": ">", "obs.value": 48.5}
{"compound": "CC(=O)Nc1ccc(NS(=O)(=O)c2ccc(Cl)s2)cc1", "result.modifier": ">", "obs.value": 49.6}
{"compound": "O=[N+]([O-])c1ccc(S(=O)(=O)NCCc2ccncc2)cc1", "result.modifier": "=", "obs.value": 12.8}
{"compound": "COc1cccc(CNC(=O)CCCNC(=O)c2ccc(Cl)cc2)c1", "result.modifier": "=", "obs.value": 37.8}
{"compound": "COC(=O)c1ccccc1S(=O)(=O)N1CCn2cccc2C1C (stereo not given)", "result.modifier": "=", "obs.value": 43.2}
{"compound": "Cc1cccc(N2CCN(CC(=O)NCc3ccccc3)CC2)c1C", "result.modifier": "=", "obs.value": 43.6}
{"compound": "NC(=O)C1CCCc2c1n(Cc1ccccc1)c1ccccc21 (stereo not given)", "result.modifier": "=", "obs.value": 22.3}
